target: CDK6 (Homo sapiens, UniProt Q00534); construct: endogenous in cells; test: CDK6 degradation (DC50, Dmax); type: cell-based
Sequence (Q00534 whole entry): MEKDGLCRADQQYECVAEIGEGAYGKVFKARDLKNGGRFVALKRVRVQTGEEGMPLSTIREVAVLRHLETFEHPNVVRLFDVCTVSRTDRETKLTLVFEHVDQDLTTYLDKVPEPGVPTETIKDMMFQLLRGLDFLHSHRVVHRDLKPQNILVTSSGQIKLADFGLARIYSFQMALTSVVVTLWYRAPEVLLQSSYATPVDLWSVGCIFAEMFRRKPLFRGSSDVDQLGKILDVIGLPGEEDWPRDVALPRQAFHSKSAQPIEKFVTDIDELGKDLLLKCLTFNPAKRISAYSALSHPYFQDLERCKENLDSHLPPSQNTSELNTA
assayMetric: Dmax

Query CC(=O)c1c(C)c2cnc(Nc3ccc(C4CCN(CC5CN(c6ccc7c(c6)CN(C6CCC(=O)NC6=O)C7=O)C5)CC4)cn3)nc2n(C2CCCC2)c1=O (stereo not drawn) [Compound 126] on CDK6 (Homo sapiens, UniProt Q00534); Dmax returned: > 80%

Query CC(=O)c1c(C)c2cnc(Nc3ccc(N4CCN(CCCNc5cc6c(cc5F)C(=O)N(C5CCC(=O)NC5=O)C6)CC4)cn3)nc2n(C2CCCC2)c1=O (stereo not drawn) [Compound 52] on CDK6 (Homo sapiens, UniProt Q00534); Dmax returned: > 80%

Query Cc1nc2c(F)cc(-c3nc(Nc4ccc(CN5CCN(CC6CN(c7ccc(C(=O)NC8CCC(=O)NC8=O)cc7)C6)CC5)cn4)ncc3F)cc2n1C(C)C (stereo not drawn) [Compound 133] on CDK6 (Homo sapiens, UniProt Q00534); Dmax returned: > 80%
